# assayed.system: HLA A*2402 (human)
# assay.info: inhibition of radiolabeled probe peptide binding to purified HLA
pIC50: −log10 of the molar value.
parameter: pIC50

1. LWEGSPGKF [LWEGSPGKF (DENV1 2451-2459)] = 5.21
